# Method description: Dog pharmacokinetics after IA injection (plasma, cartilage, bone, synovial fluid)
# Assay type: in vivo, beagle dogs
# Condition set: male, beagle, dog, bone, other: intra-articular; dogs, IA suspension, 3 μg/knee, Day 45; read-out: Compound of Formula (I) Concentration, Bone
Endpoint name: concentration at 45 day (ng/g)

{"columns": ["Smiles code", "Endpoint name", "Unit info", "Observed result"],
 "data": [
  ["CC(C)CC(=O)Nc1cncc(-c2ccc3[nH]nc(-c4nc5c(-c6cccc(F)c6)cncc5[nH]4)c3c2)c1", "concentration at 45 day", "ng/g", 11.2]
]}

----------
# Method description: Dog pharmacokinetics after IA injection (plasma, cartilage, bone, synovial fluid)
# Format: in vivo, beagle dogs
# Condition set: dog; 30 μg/knee; Day 91
Endpoint name: total amount recovered from cartilage and bone tissues from the tibia (ng)

{"columns": ["Smiles code", "Unit info", "Observed result"],
 "data": [
  ["CC(C)CC(=O)Nc1cncc(-c2ccc3[nH]nc(-c4nc5c(-c6cccc(F)c6)cncc5[nH]4)c3c2)c1", "ng", 2250]
]}
